test system: RPMI-8226 leukemia; assay: NCI tumour cell line growth inhibition, 48 h
Class criterion met: TGI at least 30 µM. Class criterion not met: TGI below 30 µM.

COc1nccc(-c2c(-c3ccc(F)cc3)ncn2C2CCC(O)CC2)n1 (stereo not given)    criterion met
CSc1nc(=S)[nH]c2n[nH]c(C)c12    criterion met
CCOC(=O)c1sc(=S)c2c(C(=O)c3ccccc3)c(C(=O)c3ccccc3)sc2c1C(=O)OCC    criterion not met
CCCOc1ccc(/C=C/c2cc(OC)c(OC)c(OC)c2)cc1    criterion not met
COc1ccc2oc(=N)c(C(N)=S)cc2c1    criterion met

Answer whether TGI of O=C1C(NCCO)=C(N2CC2)C(=O)C(NCCO)=C1N1CC1 is greater than or equal to 30 µM.
criterion met

Given COc1ccc(Cl)cc1N1C(=O)C(Cl)=C(Nc2cccc(O)c2)C1=O , state whether its TGI is at least 30 µM.
criterion met

Check the entry CCC(=O)N(c1ccccc1)C(C)CN1CCC(O)(c2ccccc2)CC1 (stereo not given) : does TGI equal or exceed 30 µM?
criterion met

Determine whether this compound has TGI no lower than 30 µM: CCCCCCn1c(-c2ccc(C(=O)O/N=C(\N)c3ccc(OC)cc3)cc2)nc(-c2ccccc2)c1-c1ccccc1
criterion not met

====

test system: HOP-18 NSCLC; assay: NCI tumour cell line growth inhibition, 48 h
readout: TGI

List the reported TGI of each compound below.
1. CC[C@@]1(O)C(=O)OCc2c1c(Cl)c1n(c2=O)Cc2cc3ccccc3nc2-1
2. CCOc1ccc(NCC(=O)N2CC(=O)Nc3ccccc32)cc1
3. CCOC(=O)/C(C#N)=C(O)/C(=C/c1ccccc1Cl)NC(=O)c1ccccc1
4. Cc1ccccc1C(C#N)/C(=N/NC(=O)c1cc2ccccc2cc1O)C(=O)Nc1cccc(Cl)c1 (stereo not given)
5. COc1ccc2[nH]c3c(cnn4cnnc34)c2c1
6. O=C(CC(=O)Nc1ccc(Cl)cc1)NNCC(=O)Nc1nc(-c2ccccc2)cs1
7. CCc1cc(Cc2cc(CC)c(NC(=O)C3=CC(=O)CC(c4ccc(OC)cc4)O3)c(CC)c2Cl)c(Cl)c(CC)c1NC(=O)C1=CC(=O)CC(c2ccc(OC)cc2)O1 (stereo not given)

1. > 28.5 µM
2. > 100 µM
3. > 100 µM
4. 73.4 µM
5. > 100 µM
6. > 100 µM
7. 53.5 µM

Batch request: TGI per item, same order as input.
1. C/C(=N\NC(N)=S)c1ccc(/C(C)=N/NC(N)=S)cc1
2. CSC(=S)N(C)c1nc(=[N+](C)C)ss1

1: > 100 µM; 2: > 100 µM

The recorded TGI for Cc1ccc2sc3cc(=O)cc(C)c-3nc2c1 is > 100 µM

====

tested on: DU-145 prostate; assay: NCI tumour cell line growth inhibition, 48 h
Provide the recorded TGI for the entries that follow.

CN(C)c1ccc(C2CC(=O)CC(c3ccc(N(C)C)cc3)C23C(=O)NC(=O)NC3=O)cc1 (stereo not given)    > 25 µM
CNC(=O)c1cc(Oc2ccc3nc(NC(=O)Nc4ccc(Cl)c(Cl)c4)sc3c2)ccn1    6.29 µM
CCCCCCCCCCCCCCCCC(C(=O)O)C(O)(CC(=O)O)C(=O)O (stereo not given)    > 100 µM
O=C(O)CCC(=O)Nc1ccc2c(c1)S(=O)(=O)N(CC(=O)O)C2=O    > 100 µM

Consider the record given below.
Param item: O=C(/C=C/c1ccc(O)c(O)c1)NC(CO)C(=O)O (stereo not given) ; param system: DU-145 prostate; output TGI: > 100 µM
